This listing pairs compounds with measured Cytotox (% viable) M17 cells at 1 μM.
Tested on: M17 human neuroblastoma cells
assay notes: Cytotoxicity, M17 human neuroblastoma cells
Assay type: cell-based
settings: 1 μM test compound
Kindly provide the numeric value in % only, without the unit symbol.

Known Cytotox (% viable) M17 cells at 1 μM results, listed for orientation:
| compound | system under test | readout type | test value |
| --- | --- | --- | --- |
| O=c1c2ccc(I)c(O)c2ncn1CC1CC1 | M17 human neuroblastoma cells | Cytotox (% viable) M17 cells at 1 μM | 106.9 |
| CCCNC(=O)Cn1cnc2c(O)c(I)ccc2c1=O | M17 human neuroblastoma cells | Cytotox (% viable) M17 cells at 1 μM | 105 |

Entry under review: "CCN(CC)CCNC(=O)c1cnc2c(O)cccn2c1=O" . Reported Cytotox (% viable) M17 cells at 1 μM?
115.2
